Attribution: paper PMC8990529

target: APE1 H309A (human, UniProt P27695 1-318, H309A); experiment: fluorescence polarization; 50 mM KCl, 1 mM MgCl2; FP: 50 mM Tris-HCl pH 7.5, 50 mM KCl, 1 mM MgCl2, 1 mM DTT, 0.1 mM EDTA, 10 nM oligo, 30 min RT, read at 25 C; Trp quenching: same buffer, 500 nM APE1, 20 C; conditions: protein: recombinant; label: 5'-6-FAM; parallel G4 (CD), prefolded in 50 mM KCl
Sequence (P27695 whole entry H309A): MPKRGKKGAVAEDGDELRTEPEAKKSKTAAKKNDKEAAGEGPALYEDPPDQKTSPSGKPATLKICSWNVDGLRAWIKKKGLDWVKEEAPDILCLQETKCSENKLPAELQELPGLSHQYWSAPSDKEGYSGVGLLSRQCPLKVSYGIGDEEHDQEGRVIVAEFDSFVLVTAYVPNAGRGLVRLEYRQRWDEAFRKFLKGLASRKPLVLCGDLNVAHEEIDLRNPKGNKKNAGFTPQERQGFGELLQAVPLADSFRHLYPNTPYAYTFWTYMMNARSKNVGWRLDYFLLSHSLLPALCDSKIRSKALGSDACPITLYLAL
Endpoint: pKd
Scale: negative log10 of molar concentration, which is what pKd denotes.

Query: Note down pKd recorded for AGGGCGGTGTGGGAAGAGGGAAGAGGGGGAGG (structured_DNA) [G4-forming KRAS oligo (32R), 6-FAM]
Response: 6.82
